Numbers sourced from ChEMBL document CHEMBL1123880.

molecular target: Beta-1 adrenergic receptor (Rattus norvegicus) (UniProt P18090); conditions: Heart, Membrane
Sequence (P18090 whole entry, looked up): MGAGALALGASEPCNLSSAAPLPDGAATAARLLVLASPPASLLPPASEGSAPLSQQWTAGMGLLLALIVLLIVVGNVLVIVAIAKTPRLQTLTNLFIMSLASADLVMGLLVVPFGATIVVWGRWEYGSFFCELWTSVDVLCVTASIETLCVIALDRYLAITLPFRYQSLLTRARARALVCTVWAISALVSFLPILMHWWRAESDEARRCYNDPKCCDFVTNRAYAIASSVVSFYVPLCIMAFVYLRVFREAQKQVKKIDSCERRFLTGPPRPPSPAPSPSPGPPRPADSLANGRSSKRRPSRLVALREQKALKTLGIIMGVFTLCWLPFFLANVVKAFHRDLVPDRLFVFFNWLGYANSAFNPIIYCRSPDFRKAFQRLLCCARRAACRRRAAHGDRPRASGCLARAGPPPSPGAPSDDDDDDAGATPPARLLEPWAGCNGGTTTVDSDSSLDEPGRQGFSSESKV
Description: Apparent dissociation constant towards beta-1 adrenergic receptor in rat heart membranes using (2-6)x10E-9M of [3AH]-DHA in the presence or absence of 10e-5 M (+/-) propranolol.
assayReadout: KD' (µM)

Solved entries:
>>> assayvalue("CC(C)NCC(O)COc1ccc(NC(=O)CCCCCCCCC(=O)Nc2ccc(OCC(O)CNC(C)C)cc2)cc1 (centres undefined)")
0.1
>>> assayvalue("CC(C)NCC(O)COc1ccc(NC(=O)CCCCC(=O)Nc2ccc(OCC(O)CNC(C)C)cc2)cc1 (centres undefined)")
9
>>> assayvalue("CC(=O)Nc1ccc(OCC(O)CNC(C)C)cc1 (centres undefined)")
6.2
>>> assayvalue("CC(C)NCC(O)COc1ccc(NC(=O)CNCCCCCCNCC(=O)Nc2ccc(OCC(O)CNC(C)C)cc2)cc1 (centres undefined)")
5
>>> assayvalue("CC(C)NCC(O)COc1ccc(NC(=O)CCC(=O)Nc2ccc(OCC(O)CNC(C)C)cc2)cc1 (centres undefined)")
16.3
>>> assayvalue("CC(C)NCC(O)COc1ccc(NC(=O)CN2CCN(CC(=O)Nc3ccc(OCC(O)CNC(C)C)cc3)CC2)cc1 (centres undefined)")
2.1

I: CC(C)NCC(O)COc1ccc(NC(=O)CNCCCCNCC(=O)Nc2ccc(OCC(O)CNC(C)C)cc2)cc1 (centres undefined)
II: CC(C)NCC(O)COc1ccc(NC(=O)CCCCCCC(=O)Nc2ccc(OCC(O)CNC(C)C)cc2)cc1 (centres undefined)
Q) Sorting ascending by KD', which comes first: I or II ? Output the label that corresponds to your choice.
A) II
